Where do these numbers come from? They come from the supplement of paper PMC4466140.

Target: AgRvs167
Experiment: SPOT peptide array binding signal intensity (averaged, normalized) (arbitrary units (background-subtracted, floor 0; scale differs between SH3 domains)); higher = stronger binding of the SH3 domain to the peptide
measurement-type: SPOT peptide array binding signal intensity
Give the figure by itself; no unit, no explanation.

Use the examples below as a reference point.
>>> print(df.to_string())
            binder  endpoint_result
0  RLPAPPPPPRRGPAP              123
1  ATKSASPTLPTRRSR              192
2  STKKPRPPVKSKPKH             1.83
3  LSKRLPLRFPEHTSS             1.33
4  VYTRTAFQIPGDDKI            0.333

Entry "TTNRGPPPLPPRANV" has what SPOT peptide array binding signal intensity? 1710

Entry "KRKRRLPVSEDTNTK" has what SPOT peptide array binding signal intensity? 3.5
